# testedSystem: Cystic fibrosis transmembrane conductance regulator (Homo sapiens, UniProt P13569, F508DEL)
# Sequence (P13569 as listed by the source): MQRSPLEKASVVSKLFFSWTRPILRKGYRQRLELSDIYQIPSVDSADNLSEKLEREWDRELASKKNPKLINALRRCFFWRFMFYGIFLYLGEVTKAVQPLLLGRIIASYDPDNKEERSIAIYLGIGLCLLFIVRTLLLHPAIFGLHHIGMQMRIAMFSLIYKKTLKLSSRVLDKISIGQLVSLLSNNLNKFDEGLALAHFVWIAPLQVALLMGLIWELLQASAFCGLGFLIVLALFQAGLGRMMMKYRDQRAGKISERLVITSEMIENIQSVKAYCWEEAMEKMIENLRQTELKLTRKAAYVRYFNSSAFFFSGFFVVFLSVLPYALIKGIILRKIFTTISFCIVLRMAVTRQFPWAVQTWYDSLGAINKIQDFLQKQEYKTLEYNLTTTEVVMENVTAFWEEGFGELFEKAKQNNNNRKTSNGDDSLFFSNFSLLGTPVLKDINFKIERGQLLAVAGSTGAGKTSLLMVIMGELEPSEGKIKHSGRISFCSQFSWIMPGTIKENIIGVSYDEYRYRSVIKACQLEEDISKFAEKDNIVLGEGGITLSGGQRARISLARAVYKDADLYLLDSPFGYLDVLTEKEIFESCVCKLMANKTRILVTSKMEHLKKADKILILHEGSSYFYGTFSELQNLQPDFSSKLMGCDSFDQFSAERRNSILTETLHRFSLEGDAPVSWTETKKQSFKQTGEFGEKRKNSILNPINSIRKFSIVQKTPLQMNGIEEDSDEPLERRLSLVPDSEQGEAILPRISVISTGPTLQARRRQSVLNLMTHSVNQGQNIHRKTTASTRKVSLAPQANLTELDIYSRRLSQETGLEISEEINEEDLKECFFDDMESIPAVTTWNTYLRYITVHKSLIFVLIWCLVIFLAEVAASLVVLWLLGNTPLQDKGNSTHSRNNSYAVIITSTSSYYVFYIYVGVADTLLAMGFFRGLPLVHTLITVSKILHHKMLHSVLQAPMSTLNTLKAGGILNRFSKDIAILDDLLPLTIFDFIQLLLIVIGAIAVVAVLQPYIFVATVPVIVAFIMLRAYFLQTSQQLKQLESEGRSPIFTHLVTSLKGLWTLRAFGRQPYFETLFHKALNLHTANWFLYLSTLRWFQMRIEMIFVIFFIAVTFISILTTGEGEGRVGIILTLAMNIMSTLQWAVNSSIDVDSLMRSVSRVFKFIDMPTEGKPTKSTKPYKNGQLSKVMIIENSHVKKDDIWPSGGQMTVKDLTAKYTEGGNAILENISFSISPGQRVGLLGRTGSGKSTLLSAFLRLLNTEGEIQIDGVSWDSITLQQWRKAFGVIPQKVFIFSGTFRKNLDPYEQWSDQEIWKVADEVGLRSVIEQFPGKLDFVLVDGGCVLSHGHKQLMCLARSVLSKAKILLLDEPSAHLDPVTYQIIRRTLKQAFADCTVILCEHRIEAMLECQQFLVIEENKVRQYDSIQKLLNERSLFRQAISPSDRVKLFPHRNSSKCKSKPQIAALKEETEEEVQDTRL
# experimentDescription: Activity of human CFTR F508 deletion mutant expressed in FRT cells assessed as potentiation of genistein-induced iodine ion influx after 24 hrs by YFP-H148Q/I152L fluorescent quenching assay
recordedMetric: EC50 (nM)

[
  {
    "smilesCode": "COc1ccc(Cl)cc1Nc1nnc(-c2csc(NC(=O)C(C)(C)C)n2)o1",
    "measurementUnits": "nM",
    "endpointResult": 660
  },
  {
    "smilesCode": "COc1ccc(Cl)cc1Nc1ncc(-c2sc(NC(=O)C(C)(C)C)nc2C)o1",
    "measurementUnits": "nM",
    "endpointResult": 740
  }
]

(I) COc1ccc(Cl)cc1Nc1nc(-c2sc(NC(=O)C(C)(C)C)nc2C)cs1
(II) COc1ccc(Cl)cc1Nc1nc(-c2nnc(NC(=O)C(C)(C)C)o2)cs1
Prompt: Return label of the item with the larger EC50. Candidates: I , II . Could you answer with the label of the item you picked?
Completion: I
(I: 870 nM, II: 590 nM)
